test: gradient 5% acetonitrile 3 min, to 50% in 2 min, to 85% in 15 min, held 3 min, 100 µL/min; conditions: column: Zorbax Extend-C18 2.1 x 50 mm; eluents: water / acetonitrile, 0.1% formic acid
endpoint-label: RP-LC retention time (s)
# number only, unit s dropped from output

Examples from the recorded data:
INSERT INTO assay_data (molecule, unit_abbreviation, meas_value) VALUES
  ('CC1CCCCN1CCNS(=O)(=O)c1ccccc1-c1nc(-c2cccc(F)c2)no1 (stereo not given)', 's', 746),
  ('CCc1nc(-c2csc(S(=O)(=O)N3CCCC(C(=O)Nc4ccccc4)C3)c2)no1 (stereo not given)', 's', 1030),
  ('COc1ccc(-c2nnc(N3CCC(C(=O)NCc4cc(F)cc(F)c4)CC3)o2)cc1', 's', 899),
  ('CC(C)c1ccc(NC(=O)C2CCN(C(=O)c3ncn4c3COC(c3ccccc3)C4)CC2)cc1 (stereo not given)', 's', 914),
  ('O=C(CCn1c(=O)c2cccn2c2cccnc21)N1CCN(c2ccccn2)CC1', 's', 584),
  ('COc1ccc(OC)c(NC(=O)Cn2c(N3CCOCC3)nc(C)cc2=O)c1', 's', 695),
  ('CC1(C(=O)NCc2ccc(F)cc2)CCCN(C(=O)Nc2ccccc2Br)C1 (stereo not given)', 's', 955),
  ('O=C(c1ccco1)N1c2ccccc2CC1c1nnc(C2CCOCC2)o1 (stereo not given)', 's', 729);

# ---- query molecule ----
query: Return RP-LC retention time for the following molecule: Cc1ccc2c(Nc3ccc(C)c(Cl)c3)c(C(=O)N3CCOCC3)cnc2n1
result: 610

* * *

assay: gradient 5% acetonitrile 3 min, to 50% in 2 min, to 85% in 15 min, held 3 min, 100 µL/min; conditions: column: Zorbax Extend-C18 2.1 x 50 mm; eluents: water / acetonitrile, 0.1% formic acid
endpoint-label: RP-LC retention time (s)
Number in s, nothing else.

INSERT INTO results (compound, meas_value) VALUES
  ('Cc1cccc(N(C)C(=O)c2cccc(NC(=O)[C@H]3[C@@H]4C[C@@H]5[C@H]3C(=O)O[C@@H]5C4)c2)c1', 782);

query: Look up RP-LC retention time of O=C(c1nc(-c2ccnc(N3CCCCC3)c2)no1)N1CCCCC1 and report it.
result: 764

query: Retrieve RP-LC retention time measured for Cc1cc(C)c2c(N3CCSCC3)nc(C(=O)N(C)Cc3ccccc3)nc2n1 and print it.
result: 682

query: Tell me its RP-LC retention time given Cc1n[nH]c(C)c1CNC(=O)C1Cn2cccc2C(=O)N1C (stereo not given) as the entry.
result: 549

query: Look up and report measured RP-LC retention time for this entry: Nc1nc(Cl)nc2c1ncn2[C@@H]1O[C@H](CO)[C@@H](O)[C@H]1O
result: 590

query: For O=C(Nc1cccc(F)c1)c1c(O)c2cccnc2n(-c2cccc(F)c2)c1=O , write its RP-LC retention time.
result: 723

query: Quote RP-LC retention time reported for Cc1nnc(N2CCCC(C(=O)NCCc3ccccc3)C2)c2nn(-c3ccc(Cl)cc3)c(C)c12 (stereo not given) please.
result: 789

* * *

assay: gradient 5% acetonitrile 3 min, to 50% in 2 min, to 85% in 15 min, held 3 min, 100 µL/min; conditions: column: Zorbax Extend-C18 2.1 x 50 mm; eluents: water / acetonitrile, 0.1% formic acid
endpoint-label: RP-LC retention time (s)
Express the result in s but write the number alone.

Example entries and their recorded answers appear below.
INSERT INTO results (compound, meas_value) VALUES
  ('CCCn1ccc2oc(C)c(C(=O)NCc3cc(F)ccc3F)c2c1=O', 1040),
  ('CCCc1cc(N2CCN(C(=O)c3cccc(N(C)C)c3)CC2)nc2nnc(C)n12', 606),
  ('CCN(C(=O)Cn1nc2cc(-c3ccccc3)nc(C)n2c1=O)c1cccc(C)c1', 862);

query: Consider the compound O=C(NCc1ccc(F)cc1Cl)C1CCCN(c2ncnc3c2oc2ccccc23)C1 (stereo not given) and give its recorded RP-LC retention time.
result: 802

query: Give RP-LC retention time for the following compound: COCc1nn(CC2CC2)c2c1CN(C(=O)Cc1ccccc1)CC2
result: 732

* * *

test: gradient 5% acetonitrile 3 min, to 50% in 2 min, to 85% in 15 min, held 3 min, 100 µL/min; settings: column: Zorbax Extend-C18 2.1 x 50 mm; eluents: water / acetonitrile, 0.1% formic acid
endpoint-label: RP-LC retention time
Express the reported value numerically, then name its unit.

query: Name the recorded RP-LC retention time of the compound listed here: CCNC(=O)N1CCC(c2noc(-c3ccccn3)n2)C1 (centres undefined)
result: 594 s

query: Look up and state reported RP-LC retention time for CS(=O)(=O)c1ccc(SCC(=O)N2CCOCC2)c([N+](=O)[O-])c1
result: 636 s

query: Return value of RP-LC retention time for input CCn1cnc(S(=O)(=O)N2CCC(C(=O)NCc3ccccc3OC)CC2)c1 , no commentary.
result: 902 s

query: Please indicate RP-LC retention time recorded for CCSCCOC(=O)C1=C(C)NC2=C(C(=O)CCC2)C1c1cccc(OC)c1OC (centres undefined)
result: 861 s

query: Identify measured RP-LC retention time associated with COc1ccc(NC(=O)c2cc3c(=O)n(CC(C)C)c4ccccc4n3n2)cc1OC
result: 910 s

query: Indicate the recorded RP-LC retention time value for this compound: CC1CC(=O)N(CC(=O)NCc2ccc3c(c2)OCO3)c2ccccc2S1 (centres undefined)
result: 741 s

query: Return the recorded RP-LC retention time value; entry: O=C(Nc1cccc(F)c1)N1CCN(c2ncccc2-c2nnc(C3CC3)o2)CC1
result: 783 s

query: Specify measured RP-LC retention time for CC[C@H](C)[C@H](NC(=O)N1C[C@@H]2C[C@@H](C1)c1cccc(=O)n1C2)C(=O)O .
result: 598 s

query: Provide measured RP-LC retention time value, entry: Cc1cccc(N2C(=O)CN(CCc3cccs3)[C@H]3CS(=O)(=O)C[C@H]32)c1
result: 814 s

query: Please report the measured RP-LC retention time for O=C(c1cnccn1)N1CC(c2nc(CCOCC3CC3)no2)C1
result: 691 s

query: Tell me its RP-LC retention time given O=C(Nc1cnc(N2CCCCC2)nc1)C1CCCC1 as the entry.
result: 834 s

query: Identify RP-LC retention time associated with the compound CCN(CCNC(=O)c1ccc2[nH]c3c(c2c1)CN(C(C)=O)CC3)c1ccccc1
result: 1160 s

query: Please give measured RP-LC retention time of the following entry: COc1ccc(OCC2c3cc(OC)c(OC)cc3CCN2C(=O)c2cccc(Cl)c2)cc1 (centres undefined)
result: 1120 s

* * *

experiment: gradient 5% acetonitrile 3 min, to 50% in 2 min, to 85% in 15 min, held 3 min, 100 µL/min; conditions: column: Zorbax Extend-C18 2.1 x 50 mm; eluents: water / acetonitrile, 0.1% formic acid
endpoint-label: RP-LC retention time
State the result as a value with its unit after it.

INSERT INTO assay_data (molecule, meas_value) VALUES
  ('O=C(NCc1cccnc1Oc1ccccc1)c1ccco1', '685 s'),
  ('COCC1CN(S(=O)(=O)c2cccc(C#N)c2)CCC1(F)F (stereo not given)', '892 s'),
  ('CCc1nncn1C1CCN(S(=O)(=O)c2cccc(Cl)c2)CC1', '726 s'),
  ('O=C(c1cccc2c1CCN2C(=O)C1CC1)N1CCOCC1', '645 s'),
  ('Cn1cc(-c2ccncc2)cc1C(=O)NCc1ccc(F)cc1Cl', '653 s'),
  ('CCn1c(C2CCN(S(=O)(=O)c3cccc4nsnc34)C2)nc2cccnc21 (stereo not given)', '705 s');

query: Read off the recorded RP-LC retention time for Cc1ccc(N2CCN(C(=O)C3CCCN(c4ncnc5c4nc4n5CCCCC4)C3)CC2)c(C)c1 (stereo not given)
result: 1050 s

query: Annotate the molecule COc1ccc(Br)c2c1C(=O)CC2 with its measured RP-LC retention time.
result: 826 s

query: Return reported RP-LC retention time. Input molecule: COc1ccc(C(=O)NC2CCN(c3nnc4ccc(C(F)(F)F)cn34)CC2)cc1
result: 751 s

query: Give reported RP-LC retention time value for Cc1ccc(CNC(=O)C2(C)CCCN(C(=O)Nc3ccc(C)cc3Cl)C2)cc1 (stereo not given)
result: 1080 s

query: Dear colleague, please send me the reported RP-LC retention time for O=C(NCCS(=O)(=O)N1CCc2ccccc2C1)c1cc(=O)c2ccccc2o1 when you can.
result: 733 s

query: Complete the entry with RP-LC retention time for COc1ccc(-c2noc(C3CCCN3C(=O)c3c(OC)cccc3OC)n2)cc1 (stereo not given)
result: 960 s

query: State, in one line, measured RP-LC retention time of CCOc1ccc(NC(=O)N2CCN(c3nc4ccccc4n3C)CC2)cc1
result: 649 s

query: Consider the molecule O=C(NC1CC1)[C@@H]1C[C@H](Oc2cccnc2)CN1C(=O)Cn1c(=O)oc2ccccc21 . State its measured RP-LC retention time.
result: 596 s
